Biological target: T1, human AMHRII (anti-Mullerian hormone receptor type 2) (human, UniProt Q16671 18-573)
T1 construct: whole, on cells; also called AMHR2; human AMHR2
T1 sequence (looked up): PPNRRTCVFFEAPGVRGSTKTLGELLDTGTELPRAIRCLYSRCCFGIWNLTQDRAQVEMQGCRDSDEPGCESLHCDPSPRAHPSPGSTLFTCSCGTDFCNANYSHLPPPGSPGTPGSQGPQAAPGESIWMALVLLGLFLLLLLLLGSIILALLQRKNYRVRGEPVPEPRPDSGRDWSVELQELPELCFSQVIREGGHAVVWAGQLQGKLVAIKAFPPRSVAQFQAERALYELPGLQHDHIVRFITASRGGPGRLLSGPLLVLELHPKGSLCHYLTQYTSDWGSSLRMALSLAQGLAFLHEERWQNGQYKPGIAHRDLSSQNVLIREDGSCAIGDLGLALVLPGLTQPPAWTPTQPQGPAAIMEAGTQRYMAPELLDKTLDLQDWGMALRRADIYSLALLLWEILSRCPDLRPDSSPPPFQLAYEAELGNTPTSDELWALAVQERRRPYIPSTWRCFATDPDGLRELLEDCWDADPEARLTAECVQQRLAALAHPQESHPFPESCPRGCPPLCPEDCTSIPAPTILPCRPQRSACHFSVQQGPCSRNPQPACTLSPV
Test: FACS on CHO-K1 cells over-expressing human AMHR2

{"binder": "94C4C3 H4L4 hIgG1 (antibody, V domains shown, Humanized, human IgG1; also called 94C4C3 H4L4 hlgG1) VH: QVQLQESGPGLVKPSETLSLTCTVTGYSITSDYAWNWIRQFPGKKLEWMGYISYSGSISYNPSLKSRITISRDTSKNQFFLQLSSVTAADTAVYYCARSRYSWFDYWGQGTLVTVSS VL: DIVLTQSPGTLSVSPGERATLSCSASESVDTYGNSFMHWYQQKPGQPPKLLIYRASSLESGIPVRFSGSGSRTDFTLTISRVEAEDFAVYYCQQSNEDPYTFGGGTKLEIK", "output_unit": "MFI", "Top (MFI)": 57900}
{"binder": "94C4C3 H3L2 hIgG1 (antibody, V domains shown, Humanized, human IgG1; also called 94C4C3 H3L2 hlgG1) VH: QVQLQESGPGLVKPSETLSLTCTVSGYSITSDYAWNWIRQFPGKGLEWMGYISYSGSISYNPSLKSRITISRDTSKNQFFLKLSSVTAADTAVYYCARSRYSWFDYWGQGTLVTVSS VL: EIVLTQSPGTLSLSPGERATLSCSASESVDTYGNSFMHWYQQKPGQPPRLLIYRASSLESGIPVRFSGSGSRTDFTLTISRLEPEDFAVYYCQQSNEDPYTFGGGTKVEIK", "output_unit": "MFI", "Top (MFI)": 47700}
{"binder": "94C4C3 H4L2 hIgG1 (antibody, V domains shown, Humanized, human IgG1; also called 94C4C3 H4L2 hlgG1) VH: QVQLQESGPGLVKPSETLSLTCTVTGYSITSDYAWNWIRQFPGKKLEWMGYISYSGSISYNPSLKSRITISRDTSKNQFFLQLSSVTAADTAVYYCARSRYSWFDYWGQGTLVTVSS VL: EIVLTQSPGTLSLSPGERATLSCSASESVDTYGNSFMHWYQQKPGQPPRLLIYRASSLESGIPVRFSGSGSRTDFTLTISRLEPEDFAVYYCQQSNEDPYTFGGGTKVEIK", "output_unit": "MFI", "Top (MFI)": 48700}
